Assay: inhibitors of E-selectin induction by TNFa, primary screen, imaging, HUVEC, immunofluorescence, MLSMR starter and 10KST1 sets (AID 487);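 further: signal is fraction of cell area covered by stained E-selectin grains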
Conditions: HUVEC TNFalpha-induced E-selectin immunofluorescence imaging, at 2 µM; hits give high values
Please mark 1.0 if the recorded inhibition is equal to or greater than -30%, and 0.0 if it falls below.

Some solved entries appear below for comparison.
| compound | class |
| --- | --- |
| CCC(CC)c1nc2cc(OC)c(OC)cc2c(=O)o1 | 0.0 |
| Cc1cccc2cc(CN(CCCO)C(=O)Nc3ccc(Cl)cc3)c(=O)[nH]c12 | 0.0 |
| COCc1nnc(NC(=O)c2ccc(S(=O)(=O)N(C)c3ccccc3)cc2)o1 | 1.0 |
| O=C(NC1CCN(Cc2ccccc2)CC1)C1CCN(S(=O)(=O)c2cccc3cccnc23)CC1 | 1.0 |
| COc1ccc(C(C)N2CC34C=CC(O3)C(C(=O)OCC(C)C)C4C2=O)cc1 (configuration not stated) | 1.0 |

Does the reported inhibition for C=COC(=O)CSc1snc(SCC(=O)OC)c1C#N fall at or above the -30% mark?
0.0

Let us now turn to Nc1nnnn1NCc1cccc(OCc2ccccc2)c1
1.0
